assayed_target: mushroom tyrosinase
assay_name: Anti-tyrosinase activity, L-DOPA as substrate
measurement_setup: IC50 ± SD, pH 6.8, read-out: Tyrosinase inhibitory activity IC50
readout_kind: pIC50
To interpret pIC50, take it as minus log10 of a concentration measured in moles per litre.

// solved cases for pIC50 follow
{"columns": ["molecule", "pIC50"],
 "data": [
  ["COc1cc(C(=O)OC[C@H]2O[C@@H](OC(=O)c3cc(O)c(O)c(O)c3)[C@@H]3OC(=O)c4cc(O)c(O)c(O)c4-c4c(cc(O)c(O)c4O)C(=O)O[C@H]3[C@@H]2O)cc(O)c1O [Compound 3]", 3.81],
  ["CCOC(=O)C1(O)C(=O)C2=C3C(=O)OC(C2OCC)C2OC(=O)c4c(c(O)c(O)c(O)c4C31)-c1c(cc(O)c(O)c1O)C(=O)OC1COC(=O)c3cc(O)c(O)c(O)c3-c3c(cc(O)c(O)c3O)C(=O)OC12 (centres unmarked) [Compound 1, Whiskey tannin C]", 3.37],
  ["COc1cc(C(=O)OC[C@H]2O[C@@H](OC(=O)c3cc(O)c(O)c(O)c3)[C@@H]3OC(=O)c4cc(O)c(O)c(O)c4-c4c(cc(O)c(O)c4O)C(=O)O[C@H]3[C@@H]2O)ccc1O [Compound 4]", 3.90],
  ["C[C@@H]1O[C@@H](Oc2c(-c3cc(O)c(O)c(O)c3)oc3cc(O)cc(O)c3c2=O)[C@H](O)[C@H](O)[C@H]1O [Compound 12, myricetin-3-O-α-L-rhamnopyranoside]", 3.04],
  ["C[C@@H]1O[C@@H](Oc2c(-c3ccc(O)c(O)c3)oc3cc(O)cc(O)c3c2=O)[C@H](O)[C@H](O)[C@H]1O [Compound 11, quercetin-3-O-α-L-rhamnoside]", 4.01]
]}

Data point: O=c1c(O)c(-c2ccc(O)cc2)oc2cc(O)cc(O)c12 [Compound 7, kaempferol] ; pIC50 = 2.72

Notebook: COc1c(O)cc(C(=O)O[C@@H]2O[C@H](COC(=O)c3cc(O)c(O)c(O)c3)[C@@H](O)[C@@H]3OC(=O)c4cc(O)c(O)c(O)c4-c4c(cc(O)c(O)c4O)C(=O)O[C@@H]23)cc1O [Compound 2] , pIC50 read as 3.62

###

System: mushroom tyrosinase
assay_name: Anti-tyrosinase activity, L-DOPA as substrate
Assay type: biochemical
readout_kind: tyrosinase inhibitory activity (in words)

{"columns": ["molecule", "assayed_target", "assay_value"],
 "data": [
  ["C[C@@H]1O[C@@H](Oc2c(-c3ccc(O)cc3)oc3cc(O)cc(O)c3c2=O)[C@H](O)[C@H](O)[C@H]1O [Compound 8, kaempferol-3-rhamnoside]", "mushroom tyrosinase", "no significant"],
  ["C[C@@H]1O[C@@H](Oc2c(-c3cc(O)c(O)c(O)c3)oc3cc(O)cc(O)c3c2=O)[C@H](O)[C@H](O)[C@H]1O [Compound 12, myricetin-3-O-α-L-rhamnopyranoside]", "mushroom tyrosinase", "no significant"],
  ["CCOC(=O)C1(O)C(=O)C2=C3C(=O)OC(C2OCC)C2OC(=O)c4c(c(O)c(O)c(O)c4C31)-c1c(cc(O)c(O)c1O)C(=O)OC1COC(=O)c3cc(O)c(O)c(O)c3-c3c(cc(O)c(O)c3O)C(=O)OC12 (stereo not shown) [Compound 1, Whiskey tannin C]", "mushroom tyrosinase", "weak"]
]}

###

Test system: LPS-stimulated RAW 264.7 cells
assay_name: NO production by LPS-stimulated RAW 264.7 cells (Griess)
Format: cell-based
measurement_setup: Mus musculus, RAW264.7, read-out: IC50 for the inhibition of NO production
pIC50: −log10 of the molar value.
Measured pIC50, listed per entry for reference.

Here are 3 molecules together with their reported answers.
{"columns": ["molecule", "assayed_target", "pIC50"],
 "data": [
  ["CCOC(=O)C1(O)C(=O)C2=C3C(=O)OC(C2OCC)C2OC(=O)c4c(c(O)c(O)c(O)c4C31)-c1c(cc(O)c(O)c1O)C(=O)OC1COC(=O)c3cc(O)c(O)c(O)c3-c3c(cc(O)c(O)c3O)C(=O)OC12 (stereo not shown)", "LPS-stimulated RAW 264.7 cells", "< 4.30"],
  ["COc1cc(C(=O)OC[C@H]2O[C@@H](OC(=O)c3cc(O)c(O)c(O)c3)[C@@H]3OC(=O)c4cc(O)c(O)c(O)c4-c4c(cc(O)c(O)c4O)C(=O)O[C@H]3[C@@H]2O)cc(O)c1O", "LPS-stimulated RAW 264.7 cells", "< 4.30"],
  ["COc1c(O)cc(C(=O)O[C@@H]2O[C@H](COC(=O)c3cc(O)c(O)c(O)c3)[C@@H](O)[C@@H]3OC(=O)c4cc(O)c(O)c(O)c4-c4c(cc(O)c(O)c4O)C(=O)O[C@@H]23)cc1O", "LPS-stimulated RAW 264.7 cells", "< 4.30"]
]}

response.value for `COc1cc(C(=O)OC[C@H]2O[C@@H](OC(=O)c3cc(O)c(O)c(O)c3)[C@@H]3OC(=O)c4cc(O)c(O)c(O)c4-c4c(cc(O)c(O)c4O)C(=O)O[C@H]3[C@@H]2O)ccc1O` (field: pIC50) = < 4.30
